pKd values for the binders below.
experimentalTarget: T1, HTRA4, P83105
T1 sequence (P83105 378-476, limits assumed, looked up): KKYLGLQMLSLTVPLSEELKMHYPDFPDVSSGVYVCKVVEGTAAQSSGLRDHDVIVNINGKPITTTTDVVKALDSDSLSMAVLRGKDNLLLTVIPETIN
testDescription: holdup assay
Set-up: key: below the threshold = too weak to quantify, mostly under pKd 3.1 to 4
assayContext: plain residues with an end cap or a label only (N-terminal biotin on a linker: ado-ado)
parameter: pKd

binder | parameter | numericResult
PAALPESTHM [SLC9A3, P48764] | pKd | 3.9
LVEEEEPMNL [HDAC7, Q8WUI4] | pKd | 3.94
